- targetSystem: IRAK4 (Homo sapiens, UniProt Q9NWZ3)
- Construct: with 0.1 nM IRAK4, 1.6 μM of biotinylated peptide substrate and 10 μM ATP
- methodNotes: IRAK4 MSD Biochemical Assay (1 mM ATP, 2 h)
- studyConditions: room temperature, read-out: IRAK4 MSD Biochemical Assay (1 mM ATP, 2 h) IC50
readoutKind: IC50 (nM)

Worked examples follow.
compound	targetSystem	readoutKind	quantitativeResult
CC(C)Oc1cc2nn(C34CCC(C)(C3)OC4)cc2cc1C(=O)Nc1cccn(C)c1=O (centres unmarked) [Example 57]	IRAK4 (Homo sapiens, UniProt Q9NWZ3)	IC50	0.8
CC(C)Oc1cc2nn(C3CCOCC3)cc2cc1C(=O)Nc1cccc2ccnn12 [Example 51]	IRAK4 (Homo sapiens, UniProt Q9NWZ3)	IC50	1.3
COc1cccc(NC(=O)c2cc3cn(CC4CCOC4)nc3cc2OC)n1.O=C(O)C(F)(F)F (centres unmarked) [Example 1, Trifluoroacetate]	IRAK4 (Homo sapiens, UniProt Q9NWZ3)	IC50	32.7
CC(C)Oc1cc2nn([C@H]3CCOC(C)(C)C3)cc2cc1C(=O)Nc1cccc(C(F)F)n1 (single isomer, unassigned) [Example 47]	IRAK4 (Homo sapiens, UniProt Q9NWZ3)	IC50	0.2
CC(C)Oc1nc2nn(C[C@@H]3CCOC3)cc2cc1C(=O)Nc1ccn(C(F)F)n1 (single isomer, unassigned) [Example 111]	IRAK4 (Homo sapiens, UniProt Q9NWZ3)	IC50	2.7
CC(C)Oc1cc2nn(C34COC(C)(C3)C4)cc2cc1C(=O)Nc1cnn2cccnc12 [Example 93]	IRAK4 (Homo sapiens, UniProt Q9NWZ3)	IC50	0.4

1. Cc1cnc2c(NC(=O)c3cc4cn(C5CCCOC5)nc4nc3OC3CCC3)cnn2c1 (single isomer, unassigned) [Example 131]
2. COc1cc2nn(C[C@H]3CCOC3)cc2cc1C(=O)Nc1cccc(C(F)F)n1 (single isomer, unassigned) [Example 18]
Prompt: For the pair 1 and 2 , which member has the lower IC50 number? Lab note: record the label of whichever item you select.
Completion: 1

====

- targetSystem: MDR1 (P-gp) (Homo sapiens)
- Construct: host or cells: MDCK cells
- Sequence (P08183 whole entry): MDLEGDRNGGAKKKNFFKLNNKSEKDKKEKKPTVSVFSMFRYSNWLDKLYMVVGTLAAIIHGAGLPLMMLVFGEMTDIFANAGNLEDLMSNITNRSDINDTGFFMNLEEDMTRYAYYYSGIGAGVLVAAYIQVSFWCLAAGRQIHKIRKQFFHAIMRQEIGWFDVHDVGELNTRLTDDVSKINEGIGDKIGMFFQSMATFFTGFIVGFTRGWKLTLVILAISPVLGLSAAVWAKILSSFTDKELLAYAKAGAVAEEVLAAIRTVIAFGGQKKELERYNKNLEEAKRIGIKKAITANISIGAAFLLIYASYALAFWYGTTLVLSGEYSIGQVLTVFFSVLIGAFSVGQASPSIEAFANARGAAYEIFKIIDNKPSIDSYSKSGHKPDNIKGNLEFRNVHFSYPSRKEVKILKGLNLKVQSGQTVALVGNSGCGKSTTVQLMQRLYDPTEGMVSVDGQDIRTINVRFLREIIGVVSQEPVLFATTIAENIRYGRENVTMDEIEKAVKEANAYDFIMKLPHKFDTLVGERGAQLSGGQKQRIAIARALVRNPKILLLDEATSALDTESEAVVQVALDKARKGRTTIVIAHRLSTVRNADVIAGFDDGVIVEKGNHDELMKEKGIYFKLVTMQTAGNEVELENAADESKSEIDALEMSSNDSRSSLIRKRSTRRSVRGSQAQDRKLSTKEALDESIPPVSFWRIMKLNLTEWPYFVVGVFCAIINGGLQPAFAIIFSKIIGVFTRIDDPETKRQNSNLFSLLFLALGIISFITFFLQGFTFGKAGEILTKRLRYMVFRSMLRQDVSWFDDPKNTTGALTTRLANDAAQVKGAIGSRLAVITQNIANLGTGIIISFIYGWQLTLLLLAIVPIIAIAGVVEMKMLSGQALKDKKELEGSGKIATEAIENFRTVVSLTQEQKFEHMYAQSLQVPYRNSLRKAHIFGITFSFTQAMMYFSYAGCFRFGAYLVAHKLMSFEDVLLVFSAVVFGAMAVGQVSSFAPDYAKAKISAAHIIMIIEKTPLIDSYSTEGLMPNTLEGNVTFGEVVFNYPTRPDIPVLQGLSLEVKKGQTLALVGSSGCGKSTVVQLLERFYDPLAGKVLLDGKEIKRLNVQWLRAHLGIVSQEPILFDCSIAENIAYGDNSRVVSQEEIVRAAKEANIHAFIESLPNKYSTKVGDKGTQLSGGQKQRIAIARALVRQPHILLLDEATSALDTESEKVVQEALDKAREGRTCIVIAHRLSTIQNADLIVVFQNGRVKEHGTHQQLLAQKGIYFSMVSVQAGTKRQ
- methodNotes: MDR1-MDCK assay (efflux ratio)
- Assay type: in vitro ADME
- studyConditions: human, MDCK-MDR1, 1 μM compound, 120 minutes incubation; read-out: MDR1-MDCK Efflux Ratio; (B-A/A-B)
Where a name gives a salt, the structure may show the parent alone.
readoutKind: efflux ratio at 120 min, 1 μM

Worked examples follow.
molecule	quantitativeResult
COc1cc2nn(C[C@H]3CCOC3)cc2cc1C(=O)Nc1cccc(C(F)F)n1 (single isomer, unassigned)	0.9
CC(C)Oc1cc2nn([C@]34CC[C@](C)(C3)OC4)cc2cc1C(=O)Nc1cnn2cccnc12 (single isomer, unassigned)	1
CC(C)Oc1cc2nn(C3CCOCC3)cc2cc1C(=O)Nc1cccnc1OC(F)F.Cl	1.1
CC(C)Oc1cc2nn(C34COC(C)(C3)C4)cc2cc1C(=O)Nc1cccc(C(F)F)n1 [Example 88, trifluoroacetate]	0.5
COc1cc2nn(CC3CCOC3)cc2cc1C(=O)Nc1cccc(C(F)F)n1 (stereo not drawn)	1.1

a. O=C(Nc1cccc(C(F)F)n1)c1cc2cn(C3CCOCC3)nc2cc1OC1CCOC1 (stereo not drawn)
b. O=C(Nc1cccc(C(F)F)n1)c1cc2cn(CC3CCOC3)nc2cn1 (stereo not drawn) [Example 8, Trifluoroacetate]
c. Cl.O=C(Nc1cccc(C(F)F)n1)c1cc2cn(C3CCOCC3)nc2cc1O[C@H]1C[C@H](C(F)F)C1
d. CC(C)Oc1nc2nn([C@@H]3CCCOC3)cc2cc1C(=O)Nc1cnn2cccnc12 (single isomer, unassigned)
Prompt: Please list these molecules in decreasing order of efflux ratio at 120 min, 1 μM. Form entry: ranked labels (order as requested).
Completion: a, c, d, b

====

- targetSystem: MDR1 (P-gp) (Homo sapiens)
- Construct: host or cells: MDCK cells
- methodNotes: MDR1-MDCK assay (efflux ratio)
- Assay type: in vitro ADME
- studyConditions: human, MDCK-MDR1, 1 μM compound, 120 minutes incubation; read-out: MDR1-MDCK Efflux Ratio; (B-A/A-B)
Structures can show the parent of a compound that is named as a salt.
readoutKind: efflux ratio at 120 min, 1 μM

compound	efflux ratio at 120 min, 1 μM
Cn1ccc(NC(=O)c2cc3cn(C4CCCOC4)nc3nc2OC2CCC2)n1 (single isomer, unassigned) [Example 129]	3.4
Cn1cccc(NC(=O)c2cc3cn(C[C@H]4CCOC4)nc3nc2OC2CCCC2)c1=O (single isomer, unassigned) [Example 114]	1.5
CC(C)Oc1nc2nn(CC3CCOC3)cc2cc1C(=O)Nc1cc(F)cn(C)c1=O (stereo not shown) [Example 81]	5.9
CC(C)Oc1cc2nn(CCC(C)(C)O)cc2cc1C(=O)Nc1ccn(C(F)F)n1 [Example 33]	8.6
COc1cccc(NC(=O)c2cc(OC)c3nn(CCC(C)(C)O)cc3c2)n1.Cl [Example 14]	24.4

P. Cc1ccn2ncc(NC(=O)c3cc4cn(C5CCCOC5)nc4nc3OC3CCC3)c2n1 (single isomer, unassigned) [Example 133]
Q. Cn1cccc(NC(=O)c2cc3cn(C45COC(C)(C4)C5)nc3cc2OC2CCC2)c1=O [Example 83, trifluoroacetate]
Prompt: Given P and Q , report the one with the higher recorded efflux ratio at 120 min, 1 μM. Lab note: record the label of whichever item you select.
Completion: P
(P: 2.6, Q: 1.2)

====

- targetSystem: IRAK4 (Homo sapiens)
- Construct: with 0.1 nM IRAK4, 1.6 μM of biotinylated peptide substrate and 10 μM ATP
- Sequence (Q9NWZ3 1-460): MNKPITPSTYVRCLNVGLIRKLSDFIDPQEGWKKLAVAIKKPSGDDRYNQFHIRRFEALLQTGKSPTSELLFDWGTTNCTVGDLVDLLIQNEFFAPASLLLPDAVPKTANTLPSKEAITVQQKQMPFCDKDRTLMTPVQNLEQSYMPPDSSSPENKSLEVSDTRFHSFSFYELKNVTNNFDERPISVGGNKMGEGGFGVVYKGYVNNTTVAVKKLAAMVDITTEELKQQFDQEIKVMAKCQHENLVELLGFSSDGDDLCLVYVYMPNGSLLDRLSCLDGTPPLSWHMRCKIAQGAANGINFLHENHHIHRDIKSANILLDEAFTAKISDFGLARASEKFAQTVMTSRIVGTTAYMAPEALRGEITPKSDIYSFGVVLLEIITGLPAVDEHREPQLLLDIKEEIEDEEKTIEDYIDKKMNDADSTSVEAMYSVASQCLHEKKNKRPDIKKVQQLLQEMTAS
- methodNotes: IRAK4 MSD Biochemical Assay (1 mM ATP, 2 h)
- studyConditions: room temperature, read-out: IRAK4 MSD Biochemical Assay (1 mM ATP, 2 h) IC50
- Description: The 2-hour 10 μM ATP Biochemical Assay employs a MesoScale Detection (MSD) format. The activity is quenched with 11 μl of 70 mM EDTA, pH 8. To detect the phosphorylated biotinylated peptide substrate, 30 μl of the quenched reaction mixture is added to equivalent wells of a 384 well streptavidin coated MesoScale plate (Meso Scale Discovery #L21SA-1). […]
readoutKind: IC50 (nM)

molecule	readoutKind	quantitativeResult
COc1cccc(NC(=O)c2cc3cn(C4CCOCC4)nc3cc2OC)n1.O=C(O)C(F)(F)F [Example 5, trifluoroacetate]	IC50	21

A. COC(C)(C)CCn1cc2cc(C(=O)Nc3cccc(C(F)F)n3)c(OC(C)C)cc2n1.Cl [Example 29, hydrochloride]
B. COc1cccc(NC(=O)c2cc3cn(C4CCOC4)nc3cc2OC)n1.O=C(O)C(F)(F)F (stereo not shown) [Example 4, trifluoroacetate]
C. Cn1cccc(NC(=O)c2cc3cn(C[C@@H]4CCOC4)nc3nc2OC2CCC2)c1=O (single isomer, unassigned)
Prompt: Please list these molecules in decreasing order of IC50. Form entry: ranked labels (order as requested).
Completion: B, C, A
(B: 3380 nM, C: 2.1 nM, A: 0.6 nM)

1. Cc1cnc2c(NC(=O)c3cc4cn(C56COC(C)(C5)C6)nc4cc3OC(C)C)cnn2c1
2. Cn1ccc(NC(=O)c2cc3cn(C4CCCOC4)nc3nc2OC2CCC2)n1 (single isomer, unassigned) [Example 129]
3. CC(C)Oc1nc2nn(CC3CCOC3)cc2cc1C(=O)Nc1ccn(C)n1 (stereo not shown)
Prompt: Ascending sort, IC50. Form entry: ranked labels (order as requested).
Completion: 1, 2, 3
(1: 1.3 nM, 2: 5.7 nM, 3: 10.6 nM)

====

- targetSystem: IRAK4 (Homo sapiens)
- Construct: with 0.1 nM IRAK4, 1.6 μM of biotinylated peptide substrate and 10 μM ATP
- Sequence (Q9NWZ3 1-460): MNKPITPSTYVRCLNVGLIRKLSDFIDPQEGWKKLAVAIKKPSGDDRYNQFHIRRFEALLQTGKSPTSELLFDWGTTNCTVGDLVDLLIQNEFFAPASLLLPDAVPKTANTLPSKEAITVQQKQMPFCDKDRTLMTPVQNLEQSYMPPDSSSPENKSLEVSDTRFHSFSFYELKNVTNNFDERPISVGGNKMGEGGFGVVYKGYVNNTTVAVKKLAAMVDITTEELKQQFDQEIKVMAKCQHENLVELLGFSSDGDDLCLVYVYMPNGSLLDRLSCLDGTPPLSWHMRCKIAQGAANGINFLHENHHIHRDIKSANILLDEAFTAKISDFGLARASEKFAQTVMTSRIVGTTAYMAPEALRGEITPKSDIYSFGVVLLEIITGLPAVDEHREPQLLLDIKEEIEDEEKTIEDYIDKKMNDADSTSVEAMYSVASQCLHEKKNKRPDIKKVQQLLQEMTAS
- methodNotes: IRAK4 MSD Biochemical Assay (1 mM ATP, 2 h)
- studyConditions: room temperature, read-out: IRAK4 MSD Biochemical Assay (1 mM ATP, 2 h) IC50
readoutKind: IC50 (nM)

molecule	IC50 (nM)
Cl.O=C(Nc1cccc(C(F)F)n1)c1cc2cn(C3CCOCC3)nc2cc1OCC1CC(F)(F)C1 [Example 49, Hydrochloride]	2

I. O=C(Nc1ccn(C(F)F)n1)c1cc2cn(C[C@@H]3CCOC3)nc2nc1OC1CCCC1 (single isomer, unassigned) [Example 117]
II. CC(C)Oc1cc2nn(CC34COC(C)(C3)C4)cc2cc1C(=O)Nc1cccc(C(F)F)n1.Cl [Example 27, hydrochloride]
III. CC(C)Oc1cc2nn(CCC(C)(C)O)cc2cc1C(=O)Nc1cnn2cccnc12 [Example 34]
Prompt: Ascending sort, IC50. Form entry: ranked labels (order as requested).
Completion: III, I, II
(III: 1 nM, I: 2 nM, II: 5.4 nM)
